All values here come from patent US8703811B2.

Test system: P. falciparum 3D7
Method Notes: Inhibition of in vitro P. falciparum culture, [3H]-hypoxanthine uptake, 3D7
Format: cell-based
Condition Description: Plasmodium falciparum, 3D7, Table 2b; read-out: 3D7 EC50
pEC50: −log10 of the molar value.
Output Y for pEC50 not less than 6; output N otherwise.

Use the examples below as a reference point.
q: pEC50 >= 6 for CCCCC(=O)c1ccc(-n2cnc3ccccc32)s1 ?
a: N

q: pEC50 >= 6 for CCCNC(=O)c1ccc(N2CCOCC2)s1 ?
a: N

q: pEC50 >= 6 for Cn1c(-c2ccc(C(=O)NC3CC3)s2)nc2ccccc21 ?
a: N

q: pEC50 >= 6 for CCCNC(=O)c1ccc(N2CCSc3ncccc32)s1 ?
a: N

q: pEC50 >= 6 for CCCNC(=O)c1ccc(N2CCc3ccccc32)s1 ?
a: N

---
q: pEC50 >= 6 for O=C(NC1CC1)c1ccc(-n2cnc3cc(F)ccc32)s1 ?
a: Y

q: pEC50 >= 6 for O=C(NC1CCCC1)c1ccc(-n2cnc3ccccc32)s1 ?
a: N

q: pEC50 >= 6 for CCCC/C(=N/O)c1ccc(-n2cnc3ccccc32)s1 ?
a: N

q: pEC50 >= 6 for O=C(NC1CCC1)c1ccc(-n2cnc3ccccc32)s1 ?
a: Y
